assay: Drug level in tumor in human U87MG cells xenografted mouse at 50 mg/kg, iv after 6 hrs; type: ADME, organism-based, Neoplasm, U-87MG ATCC; parameters: dose 50 mg/kg, route intravenous; conditions: read-out: Drug uptake
quantity: concentration at 6 h
Form field: result (number plus unit)

Query: Could you please provide reported concentration at 6 h for Cc1c2c(n3c1CCN(C(=O)[C@H](C)N)C[C@@H](C)[C@H](C)Nc1cc-3ccc1C(N)=O)CC(C)(C)CC2=O ? Thanks!
Response: 967 ng/g

----------
experiment: Plasma concentration in human NCI-H1975 cell xenografted mouse at 25 mg/kg, iv after 24 hrs; type: ADME, organism-based; design: dose 25 mg/kg, route intravenous
quantity: concentration at 24 h (ng/mL)
Give just the numeric value; ng/mL need not be written.

Query: Output concentration at 24 h of Cc1c2c(n3c1CCN(C(=O)[C@H](C)N)C[C@@H](C)[C@H](C)Nc1cc-3ccc1C(N)=O)CC(C)(C)CC2=O
Response: 9

----------
assay: Drug level in tumor in human U87MG cells xenografted mouse at 50 mg/kg, po after 24 hrs; assay type: ADME, organism-based, Neoplasm, U-87MG ATCC; set-up: dose 50 mg/kg, route oral; settings: read-out: Drug uptake
quantity: concentration at 24 h
Write the numeric value and follow it with the unit.

Query: Answer with the recorded concentration at 24 h of Cc1c2c(n3c1CCN(C(=O)[C@H](C)N)C[C@@H](C)[C@H](C)Nc1cc-3ccc1C(N)=O)CC(C)(C)CC2=O only.
Response: 242 ng/g

----------
assay: Bioavailability in CD1 mouse at 2 mg/kg, iv; assay type: ADME, organism-based; conditions: in vivo
quantity: bioavailability (%)
Respond numerically; units are % and should not be typed.

Query: Name the recorded bioavailability of the compound listed here: Cc1c2c(n3c1CCN(C(=O)[C@H](C)N)C[C@@H](C)[C@H](C)Nc1cc-3ccc1C(N)=O)CC(C)(C)CC2=O
Response: 4

----------
test: Tmax in CD1 mouse at 20 mg/kg, po; format: ADME, organism-based; set-up: dose 20 mg/kg, route oral; details: in vivo
quantity: Tmax

Query: Return reported Tmax. Input compound: Cc1c2c(n3c1CCN(C(=O)[C@H](C)N)C[C@@H](C)[C@H](C)Nc1cc-3ccc1C(N)=O)CC(C)(C)CC2=O
Response: 1 h

----------
test: Cmax in CD1 mouse at 20 mg/kg, po; type: ADME, organism-based; set-up: dose 20 mg/kg, route oral; conditions: in vivo
quantity: Cmax (µg/mL)
State the answer as a number, implicitly in µg/mL.

Query: // Input: Cc1c2c(n3c1CCN(C(=O)[C@H](C)N)C[C@@H](C)[C@H](C)Nc1cc-3ccc1C(N)=O)CC(C)(C)CC2=O . Output its Cmax only.
Response: 0.022

----------
experiment: Volume of distribution at steady state in CD1 mouse at 2 mg/kg, iv; assay type: ADME, organism-based; set-up: dose 2 mg/kg, route intravenous; settings: in vivo, read-out: Vdss
quantity: Vd (L/kg)
Give a bare numeral; the unit L/kg is implied.

Query: Identify measured Vd corresponding to Cc1c2c(n3c1CCN(C(=O)[C@H](C)N)C[C@@H](C)[C@H](C)Nc1cc-3ccc1C(N)=O)CC(C)(C)CC2=O
Response: 30

----------
For each of the compounds below, state its solubility.
experiment: Aqueous solubility of the compound at pH 7.4; type: physicochemical; details: buffer, read-out: solubility
Please respond with the number in µg/mL and leave the unit unwritten.

Query: Identify solubility associated with the compound Cc1c2c(n3c1CCN(C(=O)[C@H](C)O)C[C@@H](C)[C@H](C)Nc1cc-3ccc1C(N)=O)CC(C)(C)CC2=O
Response: 60

Query: Name the recorded solubility of the compound listed here: Cc1c2c(n3c1CCN(C(=O)[C@H](C)N)C[C@@H](C)[C@H](C)Nc1cc-3ccc1C(N)=O)CC(C)(C)CC2=O
Response: 10

Query: Input Cc1c2c(n3c1CCN(C(=O)[C@@H]1C[C@H](F)CN1)C[C@@H](C)[C@H](C)Nc1cc-3ccc1C(N)=O)CC(C)(C)CC2=O , output reported solubility.
Response: 100

Query: // Input: Cc1c2c(n3c1CCN(C(=O)[C@@H](O)C(C)C)C[C@@H](C)[C@H](C)Nc1cc-3ccc1C(N)=O)CC(C)(C)CC2=O . Output its solubility only.
Response: 30

----------
assay: Aqueous solubility of the compound at pH 7.4; format: physicochemical; details: buffer, read-out: solubility
quantity: solubility (mg/mL)
Give your result in mg/mL as a bare value.

Query: Supply recorded solubility for Cc1c2c(n3c1CCN(C(=O)CN)C[C@@H](C)[C@H](C)Nc1cc-3ccc1C(N)=O)CC(C)(C)CC2=O here.
Response: 0.046

Query: Fill in solubility for record CC(=O)N1CCc2c(C)c3c(n2-c2ccc(C(N)=O)c(c2)N[C@@H](C)[C@H](C)C1)CC(C)(C)CC3=O
Response: 0.038

Query: Look up and state reported solubility for Cc1c2c(n3c1CCN(C(=O)C1(N)CC1)C[C@@H](C)[C@H](C)Nc1cc-3ccc1C(N)=O)CC(C)(C)CC2=O
Response: 0.007

Query: Please give measured solubility of the following entry: Cc1c2c(n3c1CCN(C(=O)C1(N)CCCC1)C[C@@H](C)[C@H](C)Nc1cc-3ccc1C(N)=O)CC(C)(C)CC2=O
Response: 0.053

----------
assay: AUC (0 to infinity) in CD1 mouse at 2 mg/kg, iv; type: ADME, organism-based; set-up: time infinity, dose 2 mg/kg, route intravenous; conditions: plasma
quantity: AUC(0-inf) (ng·h/mL)
Lab book: enter the figure in ng·h/mL, no units written.

Query: Identify measured AUC(0-inf) corresponding to Cc1c2c(n3c1CCN(C(=O)[C@H](C)N)C[C@@H](C)[C@H](C)Nc1cc-3ccc1C(N)=O)CC(C)(C)CC2=O
Response: 542

----------
experiment: Drug level in tumor in human U87MG cells xenografted mouse at 50 mg/kg, po after 6 hrs; format: ADME, organism-based, Neoplasm, U-87MG ATCC; parameters: dose 50 mg/kg, route oral; settings: read-out: Drug uptake
quantity: concentration at 6 h (ng/g)
Provide the reading as a plain figure in ng/g.

Query: Determine its reported concentration at 6 h: Cc1c2c(n3c1CCN(C(=O)[C@H](C)N)C[C@@H](C)[C@H](C)Nc1cc-3ccc1C(N)=O)CC(C)(C)CC2=O
Response: 309

----------
assay: Drug level in tumor in human U87MG cells xenografted mouse at 50 mg/kg, iv after 24 hrs; assay type: ADME, organism-based, Neoplasm, U-87MG ATCC; parameters: dose 50 mg/kg, route intravenous; conditions: read-out: Drug uptake
quantity: concentration at 24 h (ng/g)
Return type: number; implicit unit ng/g.

Query: Quick one: give measured concentration at 24 h for Cc1c2c(n3c1CCN(C(=O)[C@H](C)N)C[C@@H](C)[C@H](C)Nc1cc-3ccc1C(N)=O)CC(C)(C)CC2=O
Response: 772

----------
assay: Plasma concentration in human U87MG cells xenografted mouse at 50 mg/kg, po after 24 hrs; format: ADME, organism-based, U-87MG ATCC; parameters: dose 50 mg/kg, route oral
quantity: concentration at 24 h (ng/mL)
Lab book: enter the figure in ng/mL, no units written.

Query: Specify reported concentration at 24 h for the molecule shown: Cc1c2c(n3c1CCN(C(=O)[C@H](C)N)C[C@@H](C)[C@H](C)Nc1cc-3ccc1C(N)=O)CC(C)(C)CC2=O
Response: 6

----------
test: Drug level in tumor in human NCI-H1975 cell xenografted mouse at 25 mg/kg, iv after 6 hrs; format: ADME, organism-based, Neoplasm; set-up: dose 25 mg/kg, route intravenous; conditions: read-out: Drug uptake
quantity: concentration at 6 h (ng/g)
State the answer as a number, implicitly in ng/g.

Query: // Input: Cc1c2c(n3c1CCN(C(=O)[C@H](C)N)C[C@@H](C)[C@H](C)Nc1cc-3ccc1C(N)=O)CC(C)(C)CC2=O . Output its concentration at 6 h only.
Response: 693

----------
test: Plasma concentration in human U87MG cells xenografted mouse at 50 mg/kg, po after 6 hrs; format: ADME, organism-based, U-87MG ATCC; set-up: dose 50 mg/kg, route oral
quantity: concentration at 6 h (ng/mL)
Record the value in ng/mL, omitting the unit from your answer.

Query: Entry Cc1c2c(n3c1CCN(C(=O)[C@H](C)N)C[C@@H](C)[C@H](C)Nc1cc-3ccc1C(N)=O)CC(C)(C)CC2=O needs its concentration at 6 h filled in; supply it.
Response: 53

----------
assay: Plasma concentration in human U87MG cells xenografted mouse at 50 mg/kg, iv after 24 hrs; format: ADME, organism-based, U-87MG ATCC; design: dose 50 mg/kg, route intravenous
quantity: concentration at 24 h (µg/mL)
Response body: numeric value in µg/mL, unit text excluded.

Query: Determine from records and report concentration at 24 h for Cc1c2c(n3c1CCN(C(=O)[C@H](C)N)C[C@@H](C)[C@H](C)Nc1cc-3ccc1C(N)=O)CC(C)(C)CC2=O
Response: 0.045
